Target: T1, cynomolgus PVRIG on cells (cynomolgus, UniProt A0A2K5WVV8 41-322)
T1 construct: whole, on cells; also called cPVRIG; expi cPVRIG cells
T1 sequence: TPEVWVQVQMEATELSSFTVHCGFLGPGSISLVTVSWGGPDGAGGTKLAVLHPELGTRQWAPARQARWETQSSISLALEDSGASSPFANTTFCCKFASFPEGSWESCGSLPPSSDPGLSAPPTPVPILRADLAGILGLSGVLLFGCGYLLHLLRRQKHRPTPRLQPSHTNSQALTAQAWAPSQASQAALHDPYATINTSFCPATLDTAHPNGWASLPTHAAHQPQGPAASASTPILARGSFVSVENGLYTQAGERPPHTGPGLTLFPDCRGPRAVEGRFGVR
Test: FACS, expi cPVRIG over expi parental cells, 3.3ug/ml

{"Binder": "CHA.7.512 (antibody, V domains shown) VH: QIQLVQSGPELKKPRETVKISCKASGYTFTDYSMHWVKQAPGKGLKWMGWINTETGEPTYADDFKGRFAFSLEASASSAYLQINILKDEDTATYFCARSRGGYYEDYYALDYWGQGTSVTVSS VL: DIQMTQSPASLSASVGESVTITCRASGNIHYYLAWYQQKQGKSPQLLVYNAKNLADGVPSRFSGSGSGTQFSLKINSLQPEDFGSYYCQHFWISPPTFGGGTKLEIK", "gMFIr Expi cyno OE/par": 8.96}
{"Binder": "CHA.7.526 (antibody, V domains shown) VH: QVQLKESGPGLVAPSQSLSITCTVSGFSLTAYNINWVRQPPGKGLEWLGMIWGDGNTDYNSPLKSRLTISKDNSKSQVFLKMDSLQTDDTARYYCARDLKVRRDSPYTMDYWGQGTSVTVSS VL: NIMMTQSPSSLAVSAGEKVTMSCKSSQSVLYSSNQKNYLAWYQQKPGQSPKLLIYWASNRESGVPDRFTGSGSGTDFTLTISSVQAEDLAVYYCHQYLSSYTFGGGTKLEIK", "gMFIr Expi cyno OE/par": 0.79}
{"Binder": "CHA.7.543 (antibody, V domains shown) VH: QVQLKESGPGLVAPSQSLSITCTVSGFSLSGYGIKWVRQPPGKGLEWLGTIWGDGSTDYNSALKSRLSISKDNSKSQVFLKMTSLQTDDTARYYCASDSLGITFGYWGQGTLVTVSA VL: DIQMTQTTSSLSASLGDRVTISCRASQDISNYLNWYQQKPDGTVKLLIYYTSRLHSGVPSRFSGSGSGTDYSLTISNLEQEDIATYFCQQGNTLPLTFGAGTKLELK", "gMFIr Expi cyno OE/par": 0.83}
